Biological target: [Pyruvate dehydrogenase (acetyl-transferring)] kinase isozyme 1, mitochondrial (Homo sapiens, UniProt Q15118)
Sequence (Q15118 whole entry): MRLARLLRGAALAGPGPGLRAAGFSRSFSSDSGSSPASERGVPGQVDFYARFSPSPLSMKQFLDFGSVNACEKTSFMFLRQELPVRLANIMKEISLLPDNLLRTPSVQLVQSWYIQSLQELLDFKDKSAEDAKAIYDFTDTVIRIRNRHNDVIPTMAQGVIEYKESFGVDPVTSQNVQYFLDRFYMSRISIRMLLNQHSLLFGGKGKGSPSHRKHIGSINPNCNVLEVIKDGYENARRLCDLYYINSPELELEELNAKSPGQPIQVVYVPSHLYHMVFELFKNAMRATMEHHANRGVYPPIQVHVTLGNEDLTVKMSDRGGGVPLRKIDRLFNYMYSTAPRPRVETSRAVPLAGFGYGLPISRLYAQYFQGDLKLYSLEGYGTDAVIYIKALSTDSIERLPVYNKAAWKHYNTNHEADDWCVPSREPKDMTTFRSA
Assay: Inhibition of PDHK1 (unknown origin)
reportedProperty: pIC50
Hey, just a heads up that pIC50 is the negative log base 10 of the concentration in molar.

Form field pIC50, entry C[C@@H]1C[C@H]2O[C@@H]2/C=C\C=C\C(=O)Cc2c(Cl)c(O)cc(O)c2C(=O)O1 [RADICICOL] : 3.40

====

Target: Heat shock protein HSP90 (Homo sapiens, UniProt P07900+P08238)
Assay: Inhibition of HSP90 in human NCI-H1299 cells assessed as increase in HSP70 protein levels at 10 uM incubated for 12 hrs by immunoblotting method
Format: cell-based
The source made the active and inactive calls. No cut-off for these calls is given here.
reportedProperty: inhibition

Some solved cases for reference:
COc1ccccc1N1CCN(C(=O)/C=C/c2noc(-c3cc(Cl)c(O)cc3O)c2-c2ccc(O)cc2)CC1    Active
COc1ccc(-c2c(C(=O)NC3CCN(Cc4ccccc4)CC3)noc2-c2cc(Cl)c(O)cc2O)cc1    Active
COc1ccc(-c2c(C(=O)NC3CCN(CC4CC4)CC3)noc2-c2cc(Cl)c(O)cc2O)cc1    Active
COc1ccc(CN2CCC(NC(=O)c3noc(-c4cc(Cl)c(O)cc4O)c3-c3ccc(OC)cc3)CC2)cc1    Active
COc1ccc(-c2c(/C=C/C(=O)N3CCN(c4ncccn4)CC3)noc2-c2cc(Cl)c(O)cc2O)cc1    Active

As a next step, examine the molecule that follows.
COc1cccc(N2CCN(C(=O)/C=C/c3noc(-c4cc(Cl)c(O)cc4O)c3-c3ccc(O)cc3)CC2)c1 on Heat shock protein HSP90 (Homo sapiens, UniProt P07900+P08238) gives inhibition = Active

====

In this section we review reported Papp B→A values for a set of compounds.
Assay: Apparent permeability from basolateral to apical side in human Caco2 cells
Conditions: Caco-2
Provide only the numeric value, understood in ×10⁻⁶ cm/s.

COc1ccc(-c2c(/C=C/C(=O)N3CCN(c4ncccn4)CC3)noc2-c2cc(Cl)c(O)cc2O)cc1    5.09
COc1ccccc1N1CCN(C(=O)/C=C/c2noc(-c3cc(Cl)c(O)cc3O)c2-c2ccc(O)cc2)CC1    15.5

The compound listed as COc1ccc(CN2CCC(NC(=O)c3noc(-c4cc(Cl)c(O)cc4O)c3-c3ccc(OC)cc3)CC2)cc1 has a reported Papp B→A of 8.7

Lookup result for COc1cccc(N2CCN(C(=O)/C=C/c3noc(-c4cc(Cl)c(O)cc4O)c3-c3ccc(O)cc3)CC2)c1 ; measured Papp B→A: 15

====

Target: [Pyruvate dehydrogenase (acetyl-transferring)] kinase isozyme 1, mitochondrial (Homo sapiens, UniProt Q15118)
Test: Inhibition of recombinant PDHK1 (unknown origin) expressed in Escherichia coli incubated for 1 hr by ELISA
So basically, if IC50 comes in under 600 nM it's Condition met, and if it's 600 nM or more it's Condition not met.

O=C(/C=C/c1noc(-c2cc(Cl)c(O)cc2O)c1-c1ccc(O)cc1)N1CCN(c2ccc(Cl)c(Cl)c2)CC1    Condition not met

Incoming: Here's an entry: COc1ccc(-c2c(C(=O)NC3CCN(CC(C)C)CC3)noc2-c2cc(Cl)c(O)cc2O)cc1 . Is its IC50 below 600 nM?
Outgoing: Condition met

Incoming: Problem: For the compound COc1ccc(-c2c(C(=O)NC3CCN(S(C)(=O)=O)CC3)noc2-c2cc(Cl)c(O)cc2O)cc1 , is IC50 under 600 nM?
Outgoing: Condition met

Incoming: # TODO verify IC50 < 600 nM strictly for this compound: COc1ccc(-c2c(C(=O)NC3CCN(Cc4ccccc4)CC3)noc2-c2cc(Cl)c(O)cc2O)cc1
Outgoing: Condition met

Incoming: Please indicate whether the reported IC50 of COc1ccc(-c2c(C(=O)NC3CCN(C(C)=O)CC3)noc2-c2cc(Cl)c(O)cc2O)cc1 is strictly below 600 nM.
Outgoing: Condition met

Incoming: I'd appreciate it if you could check whether O=C(/C=C/c1noc(-c2cc(Cl)c(O)cc2O)c1-c1ccc(O)cc1)N1CCN(c2ccccn2)CC1 has IC50 smaller than 600 nM.
Outgoing: Condition not met

Incoming: Please indicate whether the reported IC50 of COc1ccc(-c2c(C(=O)Nc3ccncc3)noc2-c2cc(Cl)c(O)cc2O)cc1 is strictly below 600 nM.
Outgoing: Condition met

Incoming: Input COc1ccc(-c2c(C(=O)Nc3ccc(N(C)C)cc3)noc2-c2cc(Cl)c(O)cc2O)cc1 ; condition: IC50 strictly below 600 nM. Does it hold?
Outgoing: Condition met

Incoming: Regarding COc1ccc(-c2c(/C=C/C(=O)N3CCN(c4ccccc4)CC3)noc2-c2cc(Cl)c(O)cc2O)cc1 , kindly confirm whether its IC50 is beneath 600 nM.
Outgoing: Condition not met

Incoming: Lab log: compare recorded IC50 with 600 nM; is it strictly lower for O=C(/C=C/c1noc(-c2cc(Cl)c(O)cc2O)c1-c1ccc(O)cc1)N1CCN(c2ncccn2)CC1 ?
Outgoing: Condition met

Incoming: For this compound, is IC50 lower than 600 nM? COc1ccc(CN2CCC(NC(=O)c3noc(-c4cc(Cl)c(O)cc4O)c3-c3ccc(OC)cc3)CC2)cc1
Outgoing: Condition met

Incoming: # strict comparison: is reported IC50 < 600 nM? input = COc1ccc(-c2c(C(=O)N3CCC(Cc4ccccc4)CC3)noc2-c2cc(Cl)c(O)cc2O)cc1
Outgoing: Condition not met

Incoming: Quick check: does COc1ccc(-c2c(C(=O)NC3CCN(Cc4ccncc4)CC3)noc2-c2cc(Cl)c(O)cc2O)cc1 have IC50 under 600 nM?
Outgoing: Condition met

Incoming: Below 600 nM on IC50? Entry COc1ccc(-c2c(/C=C/C(=O)N3CCN(c4cccc(C(F)(F)F)c4)CC3)noc2-c2cc(Cl)c(O)cc2O)cc1
Outgoing: Condition not met

====

Assay: Apparent permeability from apical to basolateral side in human Caco2 cells
Details: Caco-2
reportedProperty: Papp A→B (nm/s)
Write down the numeric answer in nm/s and omit the unit.

COc1ccccc1N1CCN(C(=O)/C=C/c2noc(-c3cc(Cl)c(O)cc3O)c2-c2ccc(O)cc2)CC1    112
COc1cccc(N2CCN(C(=O)/C=C/c3noc(-c4cc(Cl)c(O)cc4O)c3-c3ccc(O)cc3)CC2)c1    65.4
COc1ccc(CN2CCC(NC(=O)c3noc(-c4cc(Cl)c(O)cc4O)c3-c3ccc(OC)cc3)CC2)cc1    9.62

Could you now consider this next compound?
The recorded Papp A→B for COc1ccc(-c2c(/C=C/C(=O)N3CCN(c4ncccn4)CC3)noc2-c2cc(Cl)c(O)cc2O)cc1 is 69

====

// reported pIC50 per item
Biological target: UniProtKB Q15118
Assay: Inhibition of recombinant PDHK1 (unknown origin) expressed in Escherichia coli incubated for 1 hr by ELISA
Lab note: report pIC50 as minus log10 of the concentration in molar units, number only.

Previously resolved entries follow.
COc1ccc(-c2c(C(=O)NCc3ccc(Cl)cc3Cl)noc2-c2cc(Cl)c(O)cc2O)cc1    6.21
COc1ccccc1N1CCN(C(=O)/C=C/c2noc(-c3cc(Cl)c(O)cc3O)c2-c2ccc(O)cc2)CC1    6.22
COc1cccc(N2CCN(C(=O)/C=C/c3noc(-c4cc(Cl)c(O)cc4O)c3-c3ccc(O)cc3)CC2)c1    6.11

Quick note, pIC50 for COc1ccc(-c2c(C(=O)NC3CCN(CC4CC4)CC3)noc2-c2cc(Cl)c(O)cc2O)cc1 landed at 7.55

Just so you know, measured pIC50 for COc1ccc(-c2c(C(=O)NC3CCN(Cc4ccc(Cl)cc4Cl)CC3)noc2-c2cc(Cl)c(O)cc2O)cc1 came out at 6.80

Note to self: pIC50 recorded for O=C(/C=C/c1noc(-c2cc(Cl)c(O)cc2O)c1-c1ccc(O)cc1)N1CCN(c2cccc(C(F)(F)F)c2)CC1 was 5.53

So for COc1ccc(-c2c(/C=C/C(=O)N3CCN(c4ccccn4)CC3)noc2-c2cc(Cl)c(O)cc2O)cc1 , the logged pIC50 turned out to be 5.98

The value of pIC50 measured for the compound COc1ccc(-c2c(/C=C/C(=O)N3CCN(c4ncccn4)CC3)noc2-c2cc(Cl)c(O)cc2O)cc1 turned out to be 5.97

====

Target: [Pyruvate dehydrogenase (acetyl-transferring)] kinase isozyme 2, mitochondrial (Homo sapiens, UniProt Q15119)
Experiment: Inhibition of recombinant PDHK2 (unknown origin) expressed in Escherichia coli incubated for 1 hr by ELISA
reportedProperty: pIC50
# reply with the number alone; pIC50 is -log10 of concentration in mol/L

Record summary for COc1ccccc1N1CCN(C(=O)/C=C/c2noc(-c3cc(Cl)c(O)cc3O)c2-c2ccc(O)cc2)CC1 : reported pIC50 = 5.95

====

Molecular target: Heat shock protein HSP90 (Homo sapiens, UniProt P07900+P08238)
Assay: Inhibition of geldanamycin-BODIPY binding to full-length HSP90 (unknown origin) by fluorescence polarization based competition assay
Format: protein assay
API: label(entry) gives YES if the entry's IC50 is strictly smaller than 2000 nM; on equality or larger values it gives NO.

Incoming: I'd appreciate it if you could check whether COc1ccc(-c2c(C(=O)NCc3ccc(Cl)cc3Cl)noc2-c2cc(Cl)c(O)cc2O)cc1 has IC50 smaller than 2000 nM.
Outgoing: YES

Incoming: Threshold test, IC50 < 2000 nM: COc1ccc(-c2c(/C=C/C(=O)N3CCN(c4cccc(C(F)(F)F)c4)CC3)noc2-c2cc(Cl)c(O)cc2O)cc1
Outgoing: NO

Incoming: In plain terms, does O=C(/C=C/c1noc(-c2cc(Cl)c(O)cc2O)c1-c1ccc(O)cc1)N1CCN(c2ccc(Cl)c(Cl)c2)CC1 come in under 2000 nM for IC50?
Outgoing: NO

Incoming: Does this molecule meet the criterion IC50 < 2000 nM? COc1ccc(-c2c(C(=O)N3CCC(Cc4ccccc4)CC3)noc2-c2cc(Cl)c(O)cc2O)cc1
Outgoing: NO

Incoming: Does this molecule meet the criterion IC50 < 2000 nM? COc1ccc(-c2c(/C=C/C(=O)N3CCN(c4ccc(Cl)c(Cl)c4)CC3)noc2-c2cc(Cl)c(O)cc2O)cc1
Outgoing: NO
